testedSystem: TYK2 (Homo sapiens, UniProt P29597)
Sequence (P29597 whole entry): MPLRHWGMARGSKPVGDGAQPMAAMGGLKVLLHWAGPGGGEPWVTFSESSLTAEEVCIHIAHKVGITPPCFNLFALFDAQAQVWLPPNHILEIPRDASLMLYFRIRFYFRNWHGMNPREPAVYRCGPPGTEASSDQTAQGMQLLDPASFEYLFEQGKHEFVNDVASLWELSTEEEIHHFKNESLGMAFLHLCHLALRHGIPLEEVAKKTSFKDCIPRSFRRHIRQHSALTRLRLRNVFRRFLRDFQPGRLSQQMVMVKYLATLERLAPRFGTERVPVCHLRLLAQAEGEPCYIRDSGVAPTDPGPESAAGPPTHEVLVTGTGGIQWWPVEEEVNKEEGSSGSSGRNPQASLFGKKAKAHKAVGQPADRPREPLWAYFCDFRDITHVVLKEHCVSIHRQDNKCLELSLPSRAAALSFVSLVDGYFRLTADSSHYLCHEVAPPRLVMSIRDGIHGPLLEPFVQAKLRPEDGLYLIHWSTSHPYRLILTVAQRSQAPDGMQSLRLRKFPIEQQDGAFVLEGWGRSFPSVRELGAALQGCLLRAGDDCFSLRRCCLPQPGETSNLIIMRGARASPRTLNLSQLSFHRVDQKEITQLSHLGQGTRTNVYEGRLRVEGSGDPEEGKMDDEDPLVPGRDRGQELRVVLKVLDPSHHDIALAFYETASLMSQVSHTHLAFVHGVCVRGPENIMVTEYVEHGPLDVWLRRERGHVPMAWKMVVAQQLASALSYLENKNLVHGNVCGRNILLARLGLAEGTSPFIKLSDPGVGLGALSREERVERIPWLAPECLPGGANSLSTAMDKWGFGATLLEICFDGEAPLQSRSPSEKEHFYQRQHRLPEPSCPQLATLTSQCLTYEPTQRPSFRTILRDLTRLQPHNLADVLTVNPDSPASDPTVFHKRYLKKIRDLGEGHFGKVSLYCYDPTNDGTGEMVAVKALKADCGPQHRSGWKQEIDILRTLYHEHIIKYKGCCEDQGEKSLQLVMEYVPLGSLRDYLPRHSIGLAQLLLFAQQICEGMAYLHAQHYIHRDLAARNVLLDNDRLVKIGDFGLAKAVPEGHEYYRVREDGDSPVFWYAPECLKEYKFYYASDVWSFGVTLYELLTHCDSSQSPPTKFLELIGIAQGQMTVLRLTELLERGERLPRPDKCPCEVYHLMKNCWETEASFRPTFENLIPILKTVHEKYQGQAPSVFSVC
testDescription: TYK2 degradation MSD assay in OCI-LY10 cells
Format: cell-based
Set-up: endogenous in cells; host or cells: EBV-B cells
runParameters: 4 to 24 hours incubation, read-out: TYK2 MSD DC50 rating in OCI-LY10
measuredEndpoint: DC50

Example cases with answers are listed next.
compound: CNc1cc(Nc2cccc(-c3ccc(CN4CCN(c5ccc(-c6ccc7c(c6)n(C)c(=O)n7C6CCC(=O)NC6=O)cc5)CC4)cn3)c2)nn2c(C(=O)NC3CCC3)cnc12 (centres unmarked)
val: 1 to 10 nM
--
compound: CNC(=O)c1cnc(NC(=O)NCCCCCCCc2ccc3c(c2)n(C)c(=O)n3C2CCC(=O)NC2=O)cc1Nc1cccc(-c2ncc(F)cn2)c1OC (centres unmarked)
val: > 100 nM
--
compound: CNc1cc(Nc2cccc(-c3ccc(CN4CCN(CCCOc5ccc(C6CCC(=O)NC6=O)cc5)CC4)cn3)c2)nn2c(C(=O)N[C@@H]3C[C@@H]3F)cnc12 (some centres unmarked)
val: > 100 nM
--
compound: Cn1c(=O)n(C2CCC(=O)NC2=O)c2ccc(-c3ccc(N4CC5(CN(Cc6ccc(-c7cccc(Nc8ccc9ncc(C(=O)NC%10CC%10)n9n8)c7)nc6)C5)C4)cc3)cc21 (centres unmarked)
val: 1 to 10 nM

DC50 recorded for this compound, CNc1cc(-c2cnn(C3CCN(C(=O)NCCCCc4ccc5c(c4)n(C)c(=O)n5C4CCC(=O)NC4=O)CC3)c2)nn2c(C(=O)N[C@@H]3C[C@@H]3F)cnc12 (some centres unmarked) , is > 100 nM

DC50 recorded for this compound, CNc1cc(Nc2cccn(-c3ccc(C(=O)NC4CCC(CN(C)CC5CCN(Cc6ccc7c(c6)n(C)c(=O)n7C6CCC(=O)NC6=O)CC5)CC4)cn3)c2=O)nn2c(C(=O)N[C@@H]3C[C@@H]3F)cnc12 (some centres unmarked) , is < 1 nM

DC50 recorded for this compound, CNc1cc(Nc2cccc(-c3ccc(CN4CCN(c5ccc(-c6ccc7c(c6)n(C)c(=O)n7C6CCC(=O)NC6=O)cn5)C(=O)C4)cn3)c2)nn2c(C(=O)N[C@@H]3C[C@@H]3F)cnc12 (some centres unmarked) , is < 1 nM

DC50 recorded for this compound, CNc1cc(Nc2cccc(CN3CCN(C(=O)CCc4ccc(-c5ccc6c(c5)n(C)c(=O)n6C5CCC(=O)NC5=O)cc4)CC3)c2)nn2c(C(=O)NC3CC3)cnc12 (centres unmarked) , is 1 to 10 nM

DC50 recorded for this compound, CNc1cc(C2CCN(C(=O)CCCCCCCc3ccc4c(c3)n(C)c(=O)n4C3CCC(=O)NC3=O)CC2)nn2c(C(=O)N[C@@H]3C[C@@H]3F)cnc12 (some centres unmarked) , is > 100 nM

DC50 recorded for this compound, [2H]C([2H])([2H])NC(=O)c1nnc(Nc2ccc(CN3CCN(c4ccc5c(c4)n(C)c(=O)n5C4CCC(=O)NC4=O)CC3)cn2)cc1Nc1cccc(F)c1OC (centres unmarked) , is > 100 nM

DC50 recorded for this compound, CNc1cc(-c2ccc(-c3ccc(CN4CCN(c5ccc(-c6ccc7c(c6)n(C)c(=O)n7C6CCC(=O)NC6=O)cc5)CC4)cc3)c3nccn23)nn2c(C(=O)N[C@@H]3C[C@@H]3C)cnc12 (some centres unmarked) , is 10 to 100 nM

DC50 recorded for this compound, CNc1cc(Nc2cccn(-c3ccc(C(=O)N4CCC5(CC4)CCN(c4ccc6c(c4)n(C)c(=O)n6C4CCC(=O)NC4=O)C5)cn3)c2=O)nn2c(C(=O)N[C@@H]3C[C@@H]3F)cnc12 (some centres unmarked) , is > 100 nM

* * *

testedSystem: TYK2 (Homo sapiens)
testDescription: TYK2 degradation MSD assay in OCI-LY10 cells
Format: cell-based
Design: endogenous in cells; host or cells: EBV-B cells
runParameters: 4 to 24 hours incubation, read-out: TYK2 MSD DC50 rating in OCI-LY10
// reported DC50 per item

Example cases with answers are listed next.
molecule: CNC(=O)c1cnc(Nc2ccc(C(=O)NCCCCc3cccc4c3n(C)c(=O)n4C3CCC(=O)NC3=O)cn2)cc1Nc1ccccc1S(C)(=O)=O (stereo not shown)
DC50: > 0.1 µM
//
molecule: Cn1c(=O)n(C2CCC(=O)NC2=O)c2cccc(CCOCCOCCOCCOCCOCCOCCNc3cc(Nc4cccn(-c5ccccn5)c4=O)nn4c(C(=O)N[C@@H]5C[C@@H]5F)cnc34)c21 (stereo partly shown)
DC50: > 0.1 µM
//
molecule: CNc1cc(N2CCc3c(-c4ccc(CN5CCC6(CC5)CCN(C(=O)c5cccc(N7CCC(=O)NC7=O)c5)CC6)cn4)cccc32)nn2c(C(=O)N[C@@H]3C[C@@H]3F)cnc12
DC50: < 0.001 µM
//
molecule: CNc1cc(Nc2cccc(-c3ccc(C(=O)N4CCN(CC5CCN(c6ccc(-c7ccc8c(c7)n(C)c(=O)n8C7CCC(=O)NC7=O)cc6)CC5)CC4)cn3)c2OC)nn2c(C(=O)N[C@@H]3C[C@@H]3F)cnc12 (stereo partly shown)
DC50: 0.001 to 0.01 µM
//
molecule: CNc1cc(Nc2cccn(-c3cccc(C(=O)NCCCCCCCCCCc4ccc5c(c4)n(C)c(=O)n5C4CCC(=O)NC4=O)c3)c2=O)nn2c(C(=O)N[C@@H]3C[C@@H]3F)cnc12 (stereo partly shown)
DC50: > 0.1 µM
//
molecule: CNc1cc(Nc2cccn(-c3cc(C(=O)NCCOCCOCCOCCOCCOCCOCCc4cccc5c4n(C)c(=O)n5C4CCC(=O)NC4=O)ccn3)c2=O)nn2c(C(=O)N[C@@H]3C[C@@H]3F)cnc12 (stereo partly shown)
DC50: > 0.1 µM

DC50 recorded for this molecule, CNc1cc(Nc2cccc(C(=O)NCCCCCCCCc3cccc4c3n(C)c(=O)n4C3CCC(=O)NC3=O)c2)nn2c(C(=O)N[C@@H]3C[C@@H]3F)cnc12 (stereo partly shown) , is > 0.1 µM

DC50 recorded for this molecule, Cn1c(=O)n(C2CCC(=O)NC2=O)c2ccc(-c3ccc(N4CCN(Cc5ccc(-c6cccc(Nc7ccc8ncc(C(=O)NC9CC9)n8n7)c6)nc5)CC4=O)nc3)cc21 (stereo not shown) , is > 0.1 µM

DC50 recorded for this molecule, CNc1cc(Nc2cccc(C(=O)NCCCCCCc3ccc4c(c3)n(C)c(=O)n4C3CCC(=O)NC3=O)c2)nn2c(C(=O)N[C@@H]3C[C@@H]3F)cnc12 (stereo partly shown) , is > 0.1 µM

DC50 recorded for this molecule, CNc1cc(N2CCc3c(-c4ccc(CN5CC(C6CCN(C(=O)c7ccc(Cl)c(N8CCC(=O)NC8=O)c7)CC6)C5)cn4)cccc32)nn2c(C(=O)N[C@@H]3C[C@@H]3F)cnc12 , is < 0.001 µM

* * *

testedSystem: TYK2 (Homo sapiens)
testDescription: TYK2 degradation MSD assay in OCI-LY10 cells
Format: cell-based
Design: endogenous in cells; host or cells: EBV-B cells
runParameters: 4 to 24 hours incubation, read-out: TYK2 MSD DC50 rating in OCI-LY10
measuredEndpoint: DC50

Example cases with answers are listed next.
compound: CNc1cc(Nc2cccc(-c3ccc(CNCc4ccc(N5CCC(N6CCC(c7ccc8c(c7)n(C)c(=O)n8C7CCC(=O)NC7=O)C6)CC5)cc4)cn3)c2)nn2c(C(=O)N[C@@H]3C[C@@H]3F)cnc12 (some centres unmarked)
val: 1 to 10 nM
--
compound: CNc1cc(N2CCc3c(N4CCN(C5CC6(CCN(c7ccc8c(c7)n(C)c(=O)n8C7CCC(=O)NC7=O)CC6)C5)CC4)cccc32)nn2c(C(=O)N[C@@H]3C[C@@H]3F)cnc12 (some centres unmarked)
val: < 1 nM

Field DC50 (system: TYK2 (Homo sapiens)) for entry CCNC(=O)c1cnc2c(NC)cc(Nc3cccc(-c4ccc(CN5CCN(c6ccc(-c7ccc8c(c7)n(C)c(=O)n8C7CCC(=O)NC7=O)cc6)CC5)cn4)c3OC)nn12 (centres unmarked) = 1 to 10 nM

Field DC50 (system: TYK2 (Homo sapiens)) for entry CNC(=O)c1cnc(Nc2ccc(C(=O)NCCOCCOCCOCCOCCc3ccc4c(c3)n(C)c(=O)n4C3CCC(=O)NC3=O)cn2)cc1Nc1cccc(-c2ncc(F)cn2)c1OC (centres unmarked) = > 100 nM

Field DC50 (system: TYK2 (Homo sapiens)) for entry CNC(=O)c1cnc(Nc2ccc(CN(C)C3CCN(c4cccc5c4n(C)c(=O)n5C4CCC(=O)NC4=O)C3)cn2)cc1Nc1cccc(-c2ncc(F)cn2)c1OC (centres unmarked) = > 100 nM

* * *

// reported DC50 per item
testedSystem: UniProt P29597
testDescription: TYK2 degradation MSD assay in OCI-LY10 cells
Assay type: cell-based
Set-up: endogenous in cells; host or cells: EBV-B cells
runParameters: 4 to 24 hours incubation, read-out: TYK2 MSD DC50 rating in OCI-LY10
Experimental: Example 3. TYK2 Degradation MSD Assay in EBV-B, OCI-LY10, and Human PBMC Cells Degradation of TYK2 in cells was quantitatively measured using Meso Scale Discovery (MSD) technology. […] The assay plates were then incubated at room temperature for 1 hour, washed 3 times with 150 μl/well TBST buffer, and 150 μl/well MSD reading buffer (MSD, R92TC-2) were added. The plates were then analyzed by an MSD reader. […]

Example cases with answers are listed next.
compound: CNC(=O)c1cnc(Nc2ccc(C3CN(Cc4ccc5c(c4)n(C)c(=O)n5C4CCC(=O)NC4=O)C3)cn2)cc1Nc1cccc(-c2ncc(F)cn2)c1OC (centres unmarked)
DC50: > 100 nM

compound: CNc1cc(Nc2cccc(N3CCC(CN4CCN(c5cccc6c(C7CCC(=O)NC7=O)cncc56)CC4)CC3)c2)nn2c(C(=O)N[C@@H]3C[C@@H]3F)cnc12 (some centres unmarked)
DC50: > 100 nM

compound: CNc1cc(Nc2cccc(N3CCC(CN4CC5(CCN(c6cccc7c6n(C)c(=O)n7C6CCC(=O)NC6=O)CC5)C4)CC3)c2)nn2c(C(=O)N[C@@H]3C[C@@H]3F)cnc12 (some centres unmarked)
DC50: < 1 nM

DC50 recorded for this compound, Cn1c(=O)n(C2CCC(=O)NC2=O)c2ccc(-c3ccc(CCCNc4cc(Nc5cccn(-c6ccccn6)c5=O)nn5c(C(=O)N[C@@H]6C[C@@H]6F)cnc45)nc3)cc21 (some centres unmarked) , is > 100 nM

DC50 recorded for this compound, CNc1cc(Nc2cccn(-c3ccc(C(=O)N4CCC(CN5CCC56CN(c5ncc(C#Cc7ccc8c(c7)n(C)c(=O)n8C7CCC(=O)NC7=O)cn5)C6)CC4)cn3)c2=O)nn2c(C(=O)N[C@@H]3C[C@@H]3F)cnc12 (some centres unmarked) , is > 100 nM

DC50 recorded for this compound, CNc1cc(Nc2cccn(-c3ccc(C(=O)N4CCC5(CCCN(CCc6ccc7c(c6)n(C)c(=O)n7C6CCC(=O)NC6=O)C5)C4)cn3)c2=O)nn2c(C(=O)N[C@@H]3C[C@@H]3F)cnc12 (some centres unmarked) , is > 100 nM

DC50 recorded for this compound, CNc1cc(Nc2cccn(C3CCN(C(=O)N(C)CC4CCN(Cc5cccc6c5n(C)c(=O)n6C5CCC(=O)NC5=O)CC4)CC3)c2=O)nn2c(C(=O)N[C@@H]3C[C@@H]3F)cnc12 (some centres unmarked) , is > 100 nM

DC50 recorded for this compound, CNc1cc(Nc2cccn(-c3ccc(C(=O)N(C)C4CCN(Cc5cccc6c5n(C)c(=O)n6C5CCC(=O)NC5=O)CC4)cn3)c2=O)nn2c(C(=O)N[C@@H]3C[C@@H]3F)cnc12 (some centres unmarked) , is > 100 nM
